- Test system: Human gammaherpesvirus 4
- assay summary: Antiviral activity against Epstein-Barr virus
- Format: functional, organism-based
property: pIC50
Formally, pIC50 is defined as -log10 of the concentration c, with c in mol/L.

Check the records and state pIC50 for O=C1NCc2c1cc1ccc3c(c1c2-c1ccc2c(c1)OCO2)OCO3
4.96

----------
- assay summary: Cytotoxicity against HBV transfected human HepG2 cells by MTT assay
- Format: cell-based
property: CC50 (µM)
// note: answer is a bare numeric in µM

O=c1[nH][nH]c(=O)c2c(-c3ccc4c(c3)OCO4)c3c4c(ccc3cc12)OCO4    29

In the following, a different compound is considered.
Check the records and state CC50 for Nc1ccn([C@@H]2CS[C@H](CO)O2)c(=O)n1
100

From: ChEMBL document CHEMBL1156464
